The reported measurements were obtained from the nanobody polyreactivity screen of Harvey et al. (2022).

# test: yeast display, Sf9 membrane polyspecificity reagent, FACS + sequencing; frameworks hold sequencing errors
measured_endpoint: polyreactivity (PSR sort gate)

chain_sequence	reported_value
QVQLVESGGGLVQAGGSLRLSCAASGFIFPLYAMGWYRQAPGKERELVAAITWRGDTTSYADSVKGRFTISRDNAKNTVYLQMNSLKPEDTAVYYCAAVRYPSGYDYWGQGTQVTVSS	high polyreactivity
QVQLVESGGGLVQAGGSLRLSCAASGLTYADYAMGWYRQAPGKDRQLVAAISRRGGSTYYADSVKGRFTISRDKAKNTVYLQMNSLKPEDTAVYYCAAYAYDVAFKRYKFDYWGQGTLVTVSS	high polyreactivity
QVQLVESGGGLVQAGGSLRLSCAASGFIFTDNAMGWYRQAPGKERELVAAISKNGGSTYYADSVKGRFTISRDNAKNTVYLQMNSLKQEDTAVYYCNTRRKNFVKSSQVEYWGQGTQVTVSS	high polyreactivity
QVQLVESGGGLVQAGGSLRLSCAASGRTFYYYAMGWYREAPGKERELVAAINSGVTTSYADSVKGRFTISRDNAKNTVYLQMNSLKPEDTAVYYCAARTFSAFWRGGYDYWGQGTQVTVSS	low polyreactivity

Read the next record carefully.
Please report the recorded polyreactivity (PSR sort gate) for QVQLVESGGGLVQAGGSLRLSSPASGSIFITYAMGWYRQAPGKESELVAAIRDSGDRTYYADSVKGRFTISRDNAKKTVYFQMNSLKPEDTAVYYCNARWQEPLKYDYWGQGTQVTVSS .
low polyreactivity
